Provenance of the data: the supplement of paper PMC10567573

B1: CLCN6 (parent)
chain: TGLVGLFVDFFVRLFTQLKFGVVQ

Variants of: B1
Experiment: protein stability index of a GFP-peptide fusion (GPS, HEK-293T) (PSI 1-6); higher = more stable;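 also: lentivirally expressed fusions sorted by FACS into six bins by GFP to DsRed ratio, PSI derived from sequencing read proportions per bin multiplied by bin number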
Conditions: c terminus: a fixed tail appended
// reported protein stability index for each item listed
MEASURED METRIC: protein stability index

CHANGES: L14V
MEASURED METRIC: protein stability index
OBSERVED RESULT: 2.02

CHANGES: Q17C
MEASURED METRIC: protein stability index
OBSERVED RESULT: 2.01

CHANGES: Q17E
MEASURED METRIC: protein stability index
OBSERVED RESULT: 2
